Examples of compounds with documented clearance follow.
# Measurement protocol: Mouse pharmacokinetic test
# Type: in vivo, ICR mice
# Assay conditions: plasma, 0.5 mg/kg, IV-0.5mpk
Supply the numeric figure in mL/min/kg, leaving out any unit text.

{"Smiles representation": "CC(C)(c1ccc(-c2ccc(OCc3ccnc(P(C)(C)=O)n3)cc2)cc1)c1cc(Cl)c(OCCCl)c(C#N)c1", "clearance, mL/min/kg": 1.09}
{"Smiles representation": "CC(C)(c1ccc(-c2ccc3oc(-c4ccnc(P(C)(C)=O)n4)c(N)c3c2)cc1)c1cc(Cl)c(OCCCl)c(C#N)c1", "clearance, mL/min/kg": 1.02}

Briefly, clearance measured for "CC(C)(c1ccc(-c2ccc(OCc3ccnc(N4CC(S(C)(=O)=O)C4)n3)nc2)cc1)c1cc(Cl)c(OCCCl)c(C#N)c1" : 1.1

###

# Measurement protocol: Mouse pharmacokinetic test
# Assay type: in vivo, ICR mice
# Assay conditions: plasma, iv, 0.5 mg/kg, IV-0.5mpk
Labelling field: enter y if recorded half-life is less than 500 min. Enter n if it equals or exceeds that cut-off.

Previously resolved entries follow.
{"Compound": "CC(C)(c1ccc(-c2ccc(C#Cc3cnc(P(C)(C)=O)nc3)cc2)cc1)c1cc(Cl)c(OCCCl)c(C#N)c1 [Compound 109]", "Cat": "n"}
{"Compound": "CC(C)(c1ccc(-c2ccc(OCc3ccnc(P(C)(C)=O)n3)cc2)cc1)c1cc(Cl)c(OCCCl)c(C#N)c1 [Compound 2]", "Cat": "n"}
{"Compound": "CC(C)(c1ccc(-c2ccc(OCc3ccc(-c4cnc(P(C)(C)=O)nc4)cc3)cc2)cc1)c1cc(Cl)c(OCCCl)c(C#N)c1 [Compound 136]", "Cat": "n"}
{"Compound": "CC(C)(c1ccc(-c2ccc(OCc3ccnc(N4CC(S(C)(=O)=O)C4)n3)cn2)cc1)c1cc(Cl)c(OCCCl)c(C#N)c1 [Compound 85]", "Cat": "y"}
{"Compound": "CC(C)(c1ccc(-c2ccc3oc(-c4ccnc(P(C)(C)=O)n4)c(N)c3c2)cc1)c1cc(Cl)c(OCCCl)c(C#N)c1 [Compound 56]", "Cat": "y"}

Q: Dear colleague, could you confirm whether half-life of CC(C)(c1ccc(-c2ccc(OCc3ccnc(N4CC(S(C)(=O)=O)C4)n3)cc2)cc1)c1cc(Cl)c(OCCCl)c(C#N)c1 [Compound 53] falls below 500 min? Thanks.
Ans: n

###

# Measurement protocol: Mouse pharmacokinetic test
# Format: in vivo, ICR mice
# Assay conditions: plasma, po, 30 mg/kg, PO-30mpk
Examples of compounds with documented Cmax follow.
Supply the numeric figure in ng/mL, leaving out any unit text.

{"Compound": "CC(C)(c1ccc(-c2ncc(OCc3ccc(-c4cnc(P(C)(C)=O)nc4)cc3)cn2)cc1)c1cc(Cl)c(OCCCl)c(C#N)c1", "Cmax / ng/mL": 53200}
{"Compound": "CC(C)(c1ccc(-c2ccc(OCc3ccnc(N=S4(=O)CCCC4)n3)cn2)cc1)c1cc(Cl)c(OCCCl)c(C#N)c1", "Cmax / ng/mL": 36100}
{"Compound": "COc1c(Cl)cc(C(C)(C)c2ccc(-c3ccc(OCc4ccnc(P(C)(C)=O)n4)cc3)cc2)cc1C#N", "Cmax / ng/mL": 16200}
{"Compound": "CC(C)(c1ccc(-c2ccc(OCc3ccnc(N4CC5(CC(S(C)(=N)=O)C5)C4)n3)cc2)cc1)c1cc(Cl)c(OCCCl)c(C#N)c1 (stereo not shown)", "Cmax / ng/mL": 11000}
{"Compound": "CC(C)(c1ccc(-c2cnc(OCc3ccnc(N4CC5(CCS5(=O)=O)C4)n3)cn2)cc1)c1cc(Cl)c(OCCCl)c(C#N)c1", "Cmax / ng/mL": 131000}
{"Compound": "CC(C)(c1ccc(-c2cnc(OCc3ccnc(N4CC(S(C)(=O)=O)C4)n3)cn2)cc1)c1cc(Cl)c(OCCCl)c(C#N)c1", "Cmax / ng/mL": 74700}
{"Compound": "C[C@H](Cl)COc1c(Cl)cc(C(C)(C)c2ccc(-c3ccc(OCc4ccnc(P(C)(C)=O)n4)cc3)cc2)cc1C#N", "Cmax / ng/mL": 18700}
{"Compound": "CC(C)(c1ccc(-c2ccc(OCc3ccnc(N4CC5(COC5)C4)n3)cn2)cc1)c1cc(Cl)c(OCCCl)c(C#N)c1", "Cmax / ng/mL": 24900}

Briefly, Cmax measured for "CC(C)(c1ccc(-c2ccc(OCc3ccnc(N4CC5(CCS(=O)(=O)CC5)C4)n3)cc2)cc1)c1cc(Cl)c(OCCCl)c(C#N)c1" : 17800

Briefly, Cmax measured for "CC(C)(c1ccc(-c2ccc(OCc3ccnc(N=S4(=O)CCOCC4)n3)cn2)cc1)c1cc(Cl)c(OCCCl)c(C#N)c1" : 19900

Briefly, Cmax measured for "CC(C)(c1ccc(-c2ccc(OCc3ncc(P(C)(C)=O)s3)cc2)cc1)c1cc(Cl)c(OCCCl)c(C#N)c1" : 19300

Briefly, Cmax measured for "CC(C)(c1ccc(-c2ccc(OC3CCN(c4ccnc(P(C)(C)=O)n4)CC3)nc2)cc1)c1cc(Cl)c(OCCCl)c(C#N)c1" : 18100

Briefly, Cmax measured for "CC(C)(c1ccc(-c2ccc(OCC3CN(c4ccnc(P(C)(C)=O)n4)C3)cc2)cc1)c1cc(Cl)c(OCCCl)c(C#N)c1" : 14700
